Target: Gal4-HNF4α (human HNF4α LBD) (Homo sapiens)
Construct: uniprot entry: P41235-1, residues 142-377; expressed in transfected cells; host or cells: HEK293T
Sequence (P41235 142-377): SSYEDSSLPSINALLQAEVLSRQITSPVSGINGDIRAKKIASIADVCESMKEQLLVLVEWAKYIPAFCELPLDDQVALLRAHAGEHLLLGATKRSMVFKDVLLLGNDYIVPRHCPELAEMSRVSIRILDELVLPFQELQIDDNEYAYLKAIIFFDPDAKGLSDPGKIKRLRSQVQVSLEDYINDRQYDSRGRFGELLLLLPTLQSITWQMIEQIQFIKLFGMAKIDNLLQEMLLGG
Assay Name: Hybrid Gal4-HNF4α reporter gene assay in transiently transfected HEK293T cells
Format: cell-based
Condition Label: Table S1, primary screening, 50 µM
Assay Metric: HNF4a-screening_activity_(mean_of_n=2)
Answers are plain numbers.

CC1CCC(=O)O1 (stereo not drawn) ... 1.285
O=c1[nH]cncc1-c1ccccc1 [Prestw-Frag-3734, O=c1[nH]cncc1-c1ccccc1] ... 1.236
Cc1c(O)c2ccccc2oc1=O ... 0.9979
c1ccc(-c2nnn[nH]2)cc1 [Prestw-Frag-2887, c1ccc(cc1)-c1nnn[nH]1] ... 0.9719
CN(C)CCCC(=O)c1ccc(F)cc1 ... 1.093
OCc1ccc2c(c1)OCO2 ... 1.114
O=C(O)CC1CCCCC1 ... 0.9215
OC(c1ccccc1)c1ccc(Cl)cc1 (stereo not drawn) ... 0.8543
O=C1Cc2cc(F)ccc2N1 ... 0.8142
OCCCN1CCN(c2ccccc2)CC1 ... 1.133

Parameters: items (list). Returns: HNF4a-screening_activity_(mean_of_n=2) for each item.
1. Cc1cc(=O)n(-c2ccc(C)c(C)c2)[nH]1 [compound 11, Cc1cc(=O)n([nH]1)-c1ccc(C)c(C)c1]
2. Nc1ccc(Cl)nn1
3. COc1ccc(N)nn1
4. COc1cc2c(cc1O)CCN[C@H]2C [Prestw-Frag-1063, COc1cc2[C@H](C)NCCc2cc1O]

1: 0.3184; 2: 0.9468; 3: 1.35; 4: 1.128
